Assay info: Inhibition of bacterial beta-lactamase KPC-2 expressed in Escherichia coli BL21 (DE3) using nitrocefin as substrate assessed as inhibition constant by Cheng-Prusoff equation analysis
Design: species or system Bacteria
Measurement label: Ki (nM)
# output: bare number, implied unit nM

Using the record for CCOC(=O)c1cn(Cc2cccc(B(O)O)c2)nn1 , report its Ki. 900

Using the record for CC(C)(C)c1cn(Cc2cccc(B(O)O)c2)nn1 , report its Ki. 280

Using the record for [N-]=[N+]=Nc1ccc(F)c(B(O)O)c1 , report its Ki. 570

Using the record for OB(O)c1cccc(-n2cc(-c3ccsc3)nn2)c1 , report its Ki. 38

---

Assay info: physchem
Conditions used: 0.1 M phosphate buffer
Measurement label: pKa
Answer field: number only, no words.

Using the record for O=[N+]([O-])c1ccc(F)c(B(O)O)c1 , report its pKa. 6
